- test.target: T1, Fibrinogen fragment D (human, UniProt P02671 130-216; P02675 164-491; P02679 114-432, limits assumed)
- T1 construct: domain: Fragment D (or D-domain); Made by plasmin digestion of human fibrinogen and purified on GPRPAA beads; holds the C-terminal polymerization pockets without the N-terminal knobs; immobilised by amine coupling on the SPR chip; also called D-domain
- T1 sequence (looked up) 1: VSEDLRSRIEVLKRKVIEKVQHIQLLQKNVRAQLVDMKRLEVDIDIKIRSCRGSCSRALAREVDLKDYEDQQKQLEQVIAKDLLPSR
- T1 sequence (looked up) 2: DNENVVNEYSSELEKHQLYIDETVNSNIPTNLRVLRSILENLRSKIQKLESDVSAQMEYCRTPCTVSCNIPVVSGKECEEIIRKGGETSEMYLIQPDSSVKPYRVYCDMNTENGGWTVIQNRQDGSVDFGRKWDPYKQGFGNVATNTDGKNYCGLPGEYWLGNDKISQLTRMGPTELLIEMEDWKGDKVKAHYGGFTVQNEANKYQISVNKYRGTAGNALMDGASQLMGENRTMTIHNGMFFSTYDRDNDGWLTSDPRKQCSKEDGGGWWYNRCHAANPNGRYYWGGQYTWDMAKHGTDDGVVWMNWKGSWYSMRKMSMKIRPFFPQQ
- T1 sequence (looked up) 3: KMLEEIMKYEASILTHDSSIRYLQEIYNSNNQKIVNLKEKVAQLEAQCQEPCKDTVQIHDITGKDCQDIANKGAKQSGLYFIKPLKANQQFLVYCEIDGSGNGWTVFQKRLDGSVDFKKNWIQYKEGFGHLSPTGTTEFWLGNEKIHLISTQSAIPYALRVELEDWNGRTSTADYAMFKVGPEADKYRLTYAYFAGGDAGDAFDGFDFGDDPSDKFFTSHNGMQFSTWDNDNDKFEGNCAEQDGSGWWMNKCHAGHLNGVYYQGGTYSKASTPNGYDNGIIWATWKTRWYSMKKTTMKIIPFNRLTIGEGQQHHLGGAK
- assay.details: SPR, heterogeneous ligand model, site 2 (KD2 = kd/ka)
What pKd was measured for each of the following?
# pKd is unitless: minus log10 of the molar concentration; print number only

Task item: Please look up its pKd: GPRVVAAC (Synthetic (GenScript); also called knob 'A' peptide)
Reply: 4.60

Task item: Please look up its pKd: GPRPPERC (Synthetic (GenScript); also called knob 'A' peptide)
Reply: 5.53

Task item: Please look up its pKd: GPRPFPAC (Synthetic (GenScript); also called knob 'A' peptide)
Reply: 5.97
